Biological target: T1, human sodium-dependent phosphate transporter 2B (NaPi2b) (human, UniProt O95436 1-690)
T1 construct: UniProt ID is given as 095436 [sic]; also called hNaPi2b; Hu NaPi2b
T1 sequence: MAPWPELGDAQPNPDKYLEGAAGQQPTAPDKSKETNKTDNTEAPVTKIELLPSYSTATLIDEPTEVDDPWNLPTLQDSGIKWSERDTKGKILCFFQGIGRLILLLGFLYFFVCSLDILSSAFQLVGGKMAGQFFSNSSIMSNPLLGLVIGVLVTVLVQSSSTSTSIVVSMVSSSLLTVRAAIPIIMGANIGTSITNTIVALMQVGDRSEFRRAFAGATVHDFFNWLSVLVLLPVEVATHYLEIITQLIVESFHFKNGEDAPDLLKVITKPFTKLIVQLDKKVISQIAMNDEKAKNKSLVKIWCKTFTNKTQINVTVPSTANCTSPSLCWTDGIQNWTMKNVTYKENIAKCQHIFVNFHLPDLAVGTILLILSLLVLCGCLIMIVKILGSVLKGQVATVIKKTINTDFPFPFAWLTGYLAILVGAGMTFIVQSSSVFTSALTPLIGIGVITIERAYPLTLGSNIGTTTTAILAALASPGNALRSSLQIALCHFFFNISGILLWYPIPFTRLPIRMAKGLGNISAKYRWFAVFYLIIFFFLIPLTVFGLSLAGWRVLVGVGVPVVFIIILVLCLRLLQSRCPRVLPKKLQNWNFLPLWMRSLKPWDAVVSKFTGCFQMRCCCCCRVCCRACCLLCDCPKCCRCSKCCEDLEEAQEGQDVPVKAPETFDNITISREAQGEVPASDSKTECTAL
Experiment: flow cytometry, IGROV-1 cells (endogenous NaPi2b), 24 h at 4 °C
# Bmax (MFI) per record follows
Write the number in MFI without appending the unit.

BINDER: v29457 humanized anti-NaPi2b antibody (H4L1) (antibody, human IgG1, kappa, V domains shown) VH: QVQLVQSGAEVKKPGASVKMSCKASGFTFTSYNVHWVRQAPGQGLEWIAAISPGNGDLSYAQKFQGRATLTVDRSTSTAYMELSSLRSEDTAVYYCARGRTGMGAVDYWGQGTLVTVSS VL: DIQMTQSPSSLSASVGDRVTITCRASQDVYSYLNWYQQKPGKAPKLLIYYTSRLQSGVPSRFSGSGSGTDFTLTISSLQPEDFATYYCQQYNIFPWTFGQGTKLEIKR
Bmax (MFI): 44500
//
BINDER: v29454 humanized anti-NaPi2b antibody (H3L2) (antibody, human IgG1, kappa, V domains shown) VH: QVQLVQSGAEVKKPGASVKMSCKASGFTFTSYNVHWVRQAPGQGLEWIAAISPGNGDLSYAQKFQGRATLTVDTSTSTAYMELSSLRSEDTAVYYCARGRTGMGAVDYWGQGTLVTVSS VL: DVQMTQSPSSLSASVGDRVTITCRASQDVYSYLNWYQQKPGKAVKLLIYYTSRLQSGVPSRFSGSGSGTDYTLTISSLQPEDFATYYCQQYNIFPWTFGQGTKLEIKR
Bmax (MFI): 42300

# evaluate next
Sample v29452 humanized anti-NaPi2b antibody (H1L3) (antibody, human IgG1, kappa, V domains shown) VH: QVQLVQSGAEVKKPGASVKVSCKASGFTFTSYNVHWVRQAPGQGLEWMGAISPGNGDLSYAQKFQGRVTMTRDTSTSTVYMELSSLRSEDTAVYYCARGRTGMGAVDYWGQGTLVTVSS VL: DVQMTQSPSSLSASVGDRVTITCRASQDVYSYLNWYQQKPGKAVKLLIYYTSRLQSGVPSRFSGSGSGTDYTLTISSLQPEDIATYYCQQYNIFPWTFGQGTKLEIKR ; Bmax (MFI) observed: 47800
